Read-out record for Rho kinase (ROCK II) (Homo sapiens, UniProt O75116): IC50

[
  {
    "Compound": "Cc1cncc2cccc(S(=O)(=O)N3CCNC(C)C3)c12 (stereo not shown)",
    "Subject of test": "Rho kinase (ROCK II) (Homo sapiens, UniProt O75116)",
    "IC50, nM": 2390
  },
  {
    "Compound": "CC1CNCCN1S(=O)(=O)c1cccc2cnccc12 (stereo not shown) [B, reference compound]",
    "Subject of test": "Rho kinase (ROCK II) (Homo sapiens, UniProt O75116)",
    "IC50, nM": 913
  },
  {
    "Compound": "Cc1cncc2cccc(S(=O)(=O)N3CCCN(C)C(C)C3)c12 (stereo not shown)",
    "Subject of test": "Rho kinase (ROCK II) (Homo sapiens, UniProt O75116)",
    "IC50, nM": 270
  },
  {
    "Compound": "Cc1cncc2cccc(S(=O)(=O)N3CCCN(C)CC3C)c12 (stereo not shown)",
    "Subject of test": "Rho kinase (ROCK II) (Homo sapiens, UniProt O75116)",
    "IC50, nM": 108
  }
]
